The reported numbers originate from patent US6509371B1.

target: P450 3A4 (Homo sapiens); experiment: BG-mediated inactivation of P450 3A4 in a reconstituted system, testosterone 6β-hydroxylation activity; conditions: human, pH 7.5, probe testosterone (200 μM), 6β-hydroxylation
Sequence (P08684 with tags, fused parts or gaps): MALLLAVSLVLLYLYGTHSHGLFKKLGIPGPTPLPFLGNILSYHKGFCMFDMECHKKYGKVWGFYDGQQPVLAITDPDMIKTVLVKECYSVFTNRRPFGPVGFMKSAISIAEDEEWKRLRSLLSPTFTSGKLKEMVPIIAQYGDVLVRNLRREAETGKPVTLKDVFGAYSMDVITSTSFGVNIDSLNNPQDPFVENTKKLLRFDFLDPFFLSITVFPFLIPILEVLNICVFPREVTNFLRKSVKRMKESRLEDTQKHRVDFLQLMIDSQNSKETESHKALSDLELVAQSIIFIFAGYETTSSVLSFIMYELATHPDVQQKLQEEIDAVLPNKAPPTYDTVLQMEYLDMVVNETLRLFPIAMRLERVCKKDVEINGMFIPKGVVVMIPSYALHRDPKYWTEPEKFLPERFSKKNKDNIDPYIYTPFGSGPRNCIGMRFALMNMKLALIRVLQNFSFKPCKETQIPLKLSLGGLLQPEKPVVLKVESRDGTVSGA

Compound smiles	Study system	inhibition at […]
CC(C)=CCC/C(C)=C/COc1c2ccoc2cc2oc(=O)ccc12	P450 3A4 (Homo sapiens)	~55%
